experiment: Human liver microsome stability; assay type: in vitro ADME; conditions: human liver microsomes; read-out: HLM CLint
Attribute measured: microsomal CLint (µL/min/mg)
The reply should be a number in µL/min/mg, with the unit left off.

Q: I have this compound here, CSc1ccc(C(N)=O)cc1-c1ccc2c(cnn2C)c1 , and I need its recorded microsomal CLint.
Ans: 25.6

---

molecular target: androgen receptor (AR) (Homo sapiens, UniProt P10275); settings: from VCaP GRE2-luciferase IC50 and cLogP
Sequence (P10275 whole entry): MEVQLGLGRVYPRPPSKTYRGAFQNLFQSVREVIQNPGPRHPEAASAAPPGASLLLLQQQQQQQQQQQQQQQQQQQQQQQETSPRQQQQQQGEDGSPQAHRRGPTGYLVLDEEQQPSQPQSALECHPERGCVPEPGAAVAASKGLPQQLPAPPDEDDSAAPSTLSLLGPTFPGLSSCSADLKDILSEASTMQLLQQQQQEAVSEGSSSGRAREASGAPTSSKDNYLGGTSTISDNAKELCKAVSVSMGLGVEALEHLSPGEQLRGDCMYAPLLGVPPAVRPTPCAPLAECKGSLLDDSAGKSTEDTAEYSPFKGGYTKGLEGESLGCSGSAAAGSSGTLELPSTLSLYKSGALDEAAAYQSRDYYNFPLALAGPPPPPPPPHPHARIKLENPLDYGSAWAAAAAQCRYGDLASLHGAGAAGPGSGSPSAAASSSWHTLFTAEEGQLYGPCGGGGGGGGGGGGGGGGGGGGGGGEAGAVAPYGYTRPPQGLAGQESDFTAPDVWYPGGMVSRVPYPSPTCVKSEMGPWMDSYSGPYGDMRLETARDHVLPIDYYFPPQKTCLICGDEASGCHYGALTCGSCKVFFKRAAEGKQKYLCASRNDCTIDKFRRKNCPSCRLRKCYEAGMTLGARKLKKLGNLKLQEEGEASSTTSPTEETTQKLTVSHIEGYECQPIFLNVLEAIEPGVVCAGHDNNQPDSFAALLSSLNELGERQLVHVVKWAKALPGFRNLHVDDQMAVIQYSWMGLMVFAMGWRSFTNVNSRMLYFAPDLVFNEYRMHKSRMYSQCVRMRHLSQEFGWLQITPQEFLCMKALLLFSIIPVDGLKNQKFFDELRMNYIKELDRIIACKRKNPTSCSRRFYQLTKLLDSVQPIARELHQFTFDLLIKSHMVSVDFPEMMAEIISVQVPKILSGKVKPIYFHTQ
Attribute measured: Lipophilic Ligand Efficiency (LLE)
Just the number, please, no unit after it.

Q: Entry under review: COc1ccc(-c2cc(C(N)=O)ccc2SC)cc1F . Reported Lipophilic Ligand Efficiency (LLE)?
Ans: 6.2

Q: Any idea what Lipophilic Ligand Efficiency (LLE) was measured for CSc1ccc(C(N)=O)cc1-c1ccc2occc2c1 ?
Ans: 5.9

Q: Which Lipophilic Ligand Efficiency (LLE) value belongs to CSc1ccc(C(N)=O)cc1-c1cccnc1 ?
Ans: 5.6

Q: Item under review: CSc1ccc(C(N)=O)cc1-c1cccc(O)c1F . Reported Lipophilic Ligand Efficiency (LLE)?
Ans: 4.9

Q: Entry under review: Cn1ncc2cc(-c3cc(C(N)=O)ccc3OCc3ccccc3)ccc21 . Reported Lipophilic Ligand Efficiency (LLE)?
Ans: 4.4

Q: Requested field: Lipophilic Ligand Efficiency (LLE). Item: CSc1ccc(C(N)=O)cc1-c1ccc2c(cnn2C)c1
Ans: 4.7

Q: Suppose we examine the compound Cn1ncc2cc(-c3cc(C(N)=O)ccc3NCCN3CCCCC3)ccc21 ; what Lipophilic Ligand Efficiency (LLE) value has been reported?
Ans: 5.3

Q: // Lipophilic Ligand Efficiency (LLE) lookup, key: CSc1ccc(C(N)=O)cc1-c1ccno1
Ans: 6.7

Q: Please report the recorded Lipophilic Ligand Efficiency (LLE) for CSc1ccc(C(N)=O)cc1-c1ccc2[nH]ccc2c1 .
Ans: 5.1

Q: // lookup Lipophilic Ligand Efficiency (LLE) for CN(C)CCNc1ccc(C(N)=O)cc1-c1ccc2c(cnn2C)c1
Ans: 6.4

Q: Look at this compound and give its reported Lipophilic Ligand Efficiency (LLE). Cn1ncc2cc(-c3cccc(C(N)=O)c3)ccc21
Ans: 5.7

Q: Query (compound): COc1ncc(C(N)=O)cc1-c1ccc2c(cnn2C)c1 ; field requested: Lipophilic Ligand Efficiency (LLE)
Ans: 6.5

Q: # get_value(readout='Lipophilic Ligand Efficiency (LLE)', item= CSc1ccc(C(N)=O)cc1-c1cccc2c1CC(=O)N2 )
Ans: 5.5

Q: Fill in the blank: the reported Lipophilic Ligand Efficiency (LLE) of Cc1ccc(C(N)=O)cc1-c1ccc2c(cnn2C)c1 is ____.
Ans: 5.4

Q: Lipophilic Ligand Efficiency (LLE) for Cn1ncc2cc(-c3cc(C(N)=O)ccc3NCCCN3CCOCC3)ccc21 ?
Ans: 7.5

Q: Can you look up the measured Lipophilic Ligand Efficiency (LLE) of CSc1ccc(C(N)=O)cc1-c1ccc2nccn2c1 for me?
Ans: 5.7

Q: // returns reported Lipophilic Ligand Efficiency (LLE) for input CSc1ccc(C(N)=O)cc1-c1ccncc1
Ans: 5.6

Q: # Lipophilic Ligand Efficiency (LLE) lookup, item CC(C)COc1ccc(C(N)=O)cc1-c1ccc2c(cnn2C)c1
Ans: 4.7

Q: Reported Lipophilic Ligand Efficiency (LLE), compound COc1cc(-c2cc(C(N)=O)ccc2SC)ccc1N : ____
Ans: 5.4

Q: Query (compound): CCc1ccc(C(N)=O)cc1-c1ccc2c(cnn2C)c1 ; field requested: Lipophilic Ligand Efficiency (LLE)
Ans: 5.0

Q: Please give the measured Lipophilic Ligand Efficiency (LLE) for this compound: Cn1ncc2cc(-c3cc(C(N)=O)ccc3SCc3ccccc3)ccc21
Ans: 4.9
